# System: Endogenous Huntingtin Protein
# ASSAY_REMARKS: Endogenous Huntingtin Protein Assay (ELISA-based MSD electrochemiluminescence)
# Type: cell-based
# CONDITION: Table 2; MSD plates coated with MW1 (expanded polyglutamine) or MAB2166 capture antibody; "inactive" = result above the detection limit of the assay
pIC50: −log10 of the molar value.
MEASURED_PROPERTY: pIC50

> print(dat)
                                   molecule  measured.property  experimental.value
1  [2H]C([2H])([2H])n1cc(-c2ccc(-c3cnc(N4CC5CCC(C4)N5C)nn3)c(O)c2)cn1 [Cpd 58]              pIC50                6.17

P = CCC1CN(c2ncc(-c3ccc(-c4cc(F)c5nc(C)cn5c4)cc3O)nn2)CCN1 (stereo not shown) [Cpd 68]
Q = C[C@@H]1CN(c2ncc(-c3ccc(-c4ccc5nn(C)nc5n4)cc3O)nn2)C[C@H](C)N1 [Cpd 201]
R = Cn1nc2cnc(-c3ccc(-c4cnc(N5CCN[C@@H](C6CC6)C5)nn4)c(O)c3)cc2n1 [Cpd 172]
q: Hi! Can you put these in order of pIC50, lowest number first? Ranked list of labels, please, in the requested order.
a: Q, R, P
(Q: 7.95, R: 8.40, P: 8.66)

---

# Tested on: Endogenous Huntingtin Protein
# ASSAY_REMARKS: Endogenous Huntingtin Protein Assay (ELISA-based MSD electrochemiluminescence)
# Format: cell-based
# CONDITION: Table 2; MSD plates coated with MW1 (expanded polyglutamine) or MAB2166 capture antibody; "inactive" = result above the detection limit of the assay
pIC50: −log10 of the molar value.
MEASURED_PROPERTY: pIC50

> print(dat)
                                   compound  experimental.value
1  CC(C)CC1CN(c2ncc(-c3ccc(-c4cn[nH]c4)cc3O)nn2)CCN1 (centres unmarked) [Cpd 46]                6.82
2  CC(C)[C@H]1CN(c2ncc(-c3ccc(-c4nccs4)cc3O)nn2)CCN1 [Cpd 185]                6.80
3  Oc1cc(-c2cn[nH]c2)ccc1-c1cnc(N2CCN3C[C@H](O)C[C@H]3C2)nn1 [Cpd 59]                6.06
4  Oc1cc(-c2cn[nH]c2)ccc1-c1cnc(N2CCNC3(CCCC3)C2)nn1 [Cpd 43]                6.93
5  Cc1nc2c(C)nc(-c3ccc(-c4cnc(N5C[C@@H](C)N[C@@H](C)C5)nn4)c(O)c3)cn2n1 [Cpd 101]                7.89

A = COc1cc(-c2ccc(-c3cnc(N4CCN[C@@H](C(C)C)C4)nn3)c(O)c2)cc(C)n1 [Cpd 271]
B = Cc1cn2cc(-c3ccc(-c4cnc(N5CCN(C)[C@H](C)C5)nn4)c(O)c3)cc(F)c2n1 [Cpd 107]
q: For the pair A and B , which entry has the numerically smaller recorded pIC50? The response must carry the label of the picked entry.
a: A

---

# Test system: Endogenous Huntingtin Protein
# ASSAY_REMARKS: Endogenous Huntingtin Protein Assay (ELISA-based MSD electrochemiluminescence)
# Type: cell-based
# CONDITION: Table 2; MSD plates coated with MW1 (expanded polyglutamine) or MAB2166 capture antibody; "inactive" = result above the detection limit of the assay
MEASURED_PROPERTY: IC50 (nM)

// below: answered compounds
> print(dat)
                                   compound  experimental.value
1  CC(C)(C)[C@H]1CN(c2ncc(-c3cc(F)c(-c4cn[nH]c4)cc3O)nn2)CCN1 [Cpd 164]                   4
2  Cc1cn2nc(-c3ccc(-c4cnc(N5C[C@@H](C)N(C)[C@@H](C)C5)nn4)c(O)c3)cc(C)c2n1 [Cpd 111]                27.5

I = Oc1cc(-c2ncns2)ccc1-c1cnc(N2CCN[C@@H](C3CC3)C2)nn1 [Cpd 170]
II = [2H]C([2H])([2H])n1cc(-c2ccc(-c3cnc(N4C[C@@H](C)N(C)[C@@H](C)C4)nn3)c(O)c2)cn1 [Cpd 51]
III = COc1cc(-c2ccc(-c3cnc(N4C[C@@H](C)N[C@@H](C5CC5)C4)nn3)c(O)c2)nc(OC)n1 [Cpd 219]
IV = Cn1cc2cc(-c3cnc(-c4cnc(N5CCN[C@@H](C6CC6)C5)nn4)c(O)c3)cc(F)c2n1 [Cpd 181]
V = CC(C)[C@H]1CN(c2ncc(-c3ccc(-c4nc(C(F)F)cs4)cc3O)nn2)CCN1 [Cpd 186]
q: Hi! Can you put these in order of IC50, lowest number first? Ranked list of labels, please, in the requested order.
a: IV, III, I, V, II

# credit: patent US20230234942A1
